Molecular target: Prostaglandin G/H synthase 1 (Homo sapiens)
Sequence (P23219 whole entry): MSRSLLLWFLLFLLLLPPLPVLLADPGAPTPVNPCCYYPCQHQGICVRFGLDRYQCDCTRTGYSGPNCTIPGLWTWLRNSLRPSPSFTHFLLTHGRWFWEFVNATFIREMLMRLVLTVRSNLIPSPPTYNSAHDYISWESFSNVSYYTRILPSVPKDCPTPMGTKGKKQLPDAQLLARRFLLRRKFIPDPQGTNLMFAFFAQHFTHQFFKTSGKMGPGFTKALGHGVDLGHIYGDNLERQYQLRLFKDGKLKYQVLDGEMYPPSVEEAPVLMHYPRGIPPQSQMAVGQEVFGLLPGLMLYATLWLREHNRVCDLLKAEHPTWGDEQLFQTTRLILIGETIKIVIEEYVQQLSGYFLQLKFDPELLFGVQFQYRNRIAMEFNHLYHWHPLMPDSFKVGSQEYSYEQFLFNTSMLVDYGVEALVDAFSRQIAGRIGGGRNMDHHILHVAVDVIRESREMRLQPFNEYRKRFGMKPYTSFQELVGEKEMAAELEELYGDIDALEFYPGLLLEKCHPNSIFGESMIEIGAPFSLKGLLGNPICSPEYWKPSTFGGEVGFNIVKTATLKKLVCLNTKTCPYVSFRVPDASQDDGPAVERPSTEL
measured.metric: IC50 (µM)
Note: unit µM is implicit; provide only the numeric part.

{"compound": "CC1C(c2ccccc2)=C(c2ccc(S(C)(=O)=O)cc2)ON1C (configuration not stated)", "IC50, µM": 258}
{"compound": "CN1CC(c2ccc(F)cc2)=C(c2ccccc2)O1", "IC50, µM": 5.86}
{"compound": "CN1CC(c2ccccc2)=C(c2ccc(F)cc2)O1", "IC50, µM": 2.64}

Next, consider the following compound.
Record CN1CC(c2ccc(S(C)(=O)=O)cc2)=C(c2ccccc2)O1 ; system Prostaglandin G/H synthase 1 (Homo sapiens); IC50 = 5.86
